Tested on: recombinant erythrose reductase type II
Assay: Substrate specificity of purified recombinant erythrose reductase type II, NADPH consumption at 340 nm
Format: biochemical, Trichosporonoides megachiliensis
Details: rate with D-erythrose = 100%; 12 mM substrate, 0.2 mM NADPH, 50 mM phosphate buffer pH 6.5, 37° C., 5 minutes
measured attribute: Relative value (%) of reaction rate, Recombinant type Type II
# unit: % | format: bare number

Record excerpt, results attached:
| chem smiles | tested target | recorded value |
| --- | --- | --- |
| O=C[C@H](O)CO | recombinant erythrose reductase type II | 107.8 |
| O=C[C@H](O)[C@@H](O)[C@@H](O)[C@H](O)CO | recombinant erythrose reductase type II | 0.0 |
| O=C[C@H](O)[C@@H](O)[C@H](O)CO | recombinant erythrose reductase type II | 2.4 |

Let me check: "O=C[C@@H](O)[C@@H](O)[C@H](O)[C@H](O)CO" , system recombinant erythrose reductase type II, measured Relative value (%) of reaction rate, Recombinant type Type II is 0.0

* * *

System: recombinant erythrose reductase type I
Experiment: Substrate specificity of purified recombinant erythrose reductase type I, NADPH consumption at 340 nm
Assay type: biochemical, Trichosporonoides megachiliensis
Details: rate with D-erythrose = 100%; 12 mM substrate, 0.2 mM NADPH, 50 mM phosphate buffer pH 6.5, 37° C., 5 minutes
// reported Relative value (%) of reaction rate, Recombinant type Type I for each item listed
# unit: % | format: bare number

// below: answered compounds
| compound | recorded value |
| --- | --- |
| O=C[C@H](O)[C@@H](O)[C@@H](O)[C@H](O)CO [D-galactose] | 0.0 |
| O=C(CO)[C@@H](O)[C@H](O)[C@H](O)CO [D-fructose] | 0.0 |
| O=C[C@H](O)[C@H](O)[C@H](O)CO [D-ribose] | 1.0 |

// switching to the query compound
Short answer for O=C[C@H](O)[C@@H](O)[C@H](O)[C@H](O)CO [D-glucose] : Relative value (%) of reaction rate, Recombinant type Type I was 0.0

* * *

Recorded Relative value (%) of reaction rate, Recombinant type Type I by entry
Test system: recombinant erythrose reductase type I
Assay: Substrate specificity of purified recombinant erythrose reductase type I, NADPH consumption at 340 nm
Type: biochemical, Trichosporonoides megachiliensis
Conditions: rate with D-erythrose = 100%; 12 mM substrate, 0.2 mM NADPH, 50 mM phosphate buffer pH 6.5, 37° C., 5 minutes
Only the number, expressed in %, is required.

# annotated cases, reported Relative value (%) of reaction rate, Recombinant type Type I shown
| compound | unit info | recorded value |
| --- | --- | --- |
| O=C[C@H](O)[C@H](O)CO | % | 100.0 |
| O=C(CO)[C@@H](O)[C@H](O)[C@@H](O)CO | % | 0.0 |
| O=Cc1ccc([N+](=O)[O-])cc1 | % | 11.5 |
| OC[C@H]1O[C@H](O[C@H]2O[C@H](CO)[C@@H](O)[C@H](O)[C@H]2O)[C@H](O)[C@@H](O)[C@@H]1O | % | 0.0 |
| O=C[C@@H](O)[C@H](O)[C@H](O)CO | % | 0.9 |
| O=C[C@@H](O)[C@@H](O)[C@H](O)[C@H](O)CO | % | 0.0 |
| O=C[C@H](O)[C@@H](O)[C@H](O)[C@H](O)C(=O)O [D-glucuronate] | % | 0.7 |
| O=C[C@H](O)[C@@H](O)[C@H](O)CO | % | 3.2 |

"O=C(CO)[C@@H](O)[C@H](O)CO" yielded Relative value (%) of reaction rate, Recombinant type Type I of 7.5

The recorded Relative value (%) of reaction rate, Recombinant type Type I for entry "O=C[C@H](O)CO" equals 102.0

* * *

Tested on: recombinant erythrose reductase type III
Assay: Substrate specificity of purified recombinant erythrose reductase type III, NADPH consumption at 340 nm
Type: biochemical, Trichosporonoides megachiliensis
Details: rate with D-erythrose = 100%; 12 mM substrate, 0.2 mM NADPH, 50 mM phosphate buffer pH 6.5, 37° C., 5 minutes
Label Fulfilled when Relative value (%) of reaction rate, Recombinant type Type III is strictly below 4%; at or above that, label Not fulfilled.

Below, 8 compounds whose answers are already recorded.
| compound | tested target | answer label |
| --- | --- | --- |
| O=C[C@H](O)[C@@H](O)[C@@H](O)[C@H](O)CO | recombinant erythrose reductase type III | Fulfilled |
| O=C[C@@H](O)[C@H](O)[C@H](O)CO | recombinant erythrose reductase type III | Fulfilled |
| O=C(CO)[C@@H](O)[C@H](O)[C@@H](O)CO | recombinant erythrose reductase type III | Fulfilled |
| O=C[C@H](O)[C@@H](O)[C@H](O)[C@H](O)C(=O)O [D-glucuronate] | recombinant erythrose reductase type III | Fulfilled |
| O=C(CO)[C@@H](O)[C@H](O)CO | recombinant erythrose reductase type III | Not fulfilled |
| O=C[C@@H](O)[C@@H](O)[C@H](O)[C@H](O)CO | recombinant erythrose reductase type III | Fulfilled |
| O=C[C@H](O)CO | recombinant erythrose reductase type III | Not fulfilled |
| O=Cc1ccc([N+](=O)[O-])cc1 | recombinant erythrose reductase type III | Not fulfilled |

Prompt: For this compound, is Relative value (%) of reaction rate, Recombinant type Type III lower than 4%? "O=C[C@H](O)[C@H](O)CO"
Response: Not fulfilled

Prompt: Record "O=C[C@H](O)[C@H](O)[C@H](O)CO" : is its Relative value (%) of reaction rate, Recombinant type Type III strictly below 4%?
Response: Fulfilled

Prompt: Does "OC[C@H]1O[C@H](O[C@H]2O[C@H](CO)[C@@H](O)[C@H](O)[C@H]2O)[C@H](O)[C@@H](O)[C@@H]1O" have Relative value (%) of reaction rate, Recombinant type Type III strictly under 4%?
Response: Fulfilled

Prompt: Relative value (%) of reaction rate, Recombinant type Type III under 4%? Item: "O=C(CO)[C@@H](O)[C@H](O)[C@H](O)CO"
Response: Fulfilled

Prompt: Is Relative value (%) of reaction rate, Recombinant type Type III of "O=C[C@H](O)[C@@H](O)[C@H](O)CO" strictly below 4%?
Response: Not fulfilled

Prompt: Hello, I'm reviewing records and need to know if Relative value (%) of reaction rate, Recombinant type Type III of "O=C[C@H](O)[C@@H](O)[C@H](O)[C@H](O)CO" is below 4%. Could you check?
Response: Fulfilled
